# assayed target: FP receptors (Swiss 3T3 cells expressing FP receptors) (Mus musculus, UniProt P43117)
# Construct: endogenous in cells; host or cells: Swiss 3T3 cells
# Sequence (P43117 whole entry): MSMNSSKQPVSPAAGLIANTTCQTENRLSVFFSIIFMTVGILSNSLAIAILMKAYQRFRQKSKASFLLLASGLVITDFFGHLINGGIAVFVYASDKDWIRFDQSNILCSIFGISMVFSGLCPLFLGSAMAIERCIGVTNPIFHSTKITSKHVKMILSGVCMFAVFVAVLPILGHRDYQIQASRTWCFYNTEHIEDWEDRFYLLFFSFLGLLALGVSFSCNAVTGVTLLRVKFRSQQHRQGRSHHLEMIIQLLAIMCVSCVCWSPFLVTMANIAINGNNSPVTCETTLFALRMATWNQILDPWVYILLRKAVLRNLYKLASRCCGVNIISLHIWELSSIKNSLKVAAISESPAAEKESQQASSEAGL
# assay procedure: FP receptor-mediated phosphoinositide turnover assay
# Type: cell-based
# condition description: Swiss-3T3, 1 h; Table 1; efficacy relative to standard full agonist (100%); read-out: FP functional (%) agonistic activity
Give measured Emax for each item. Keep answers brief.
Give bare numbers, in %.

Worked cases, answers included:
>  <smiles code>
O=C(O)CCC/C=C\C[C@@H]1[C@@H](/C=C/[C@@H](F)COc2ccccc2)[C@H](O)C[C@@H]1O

>  <assayed target>
FP receptors (Swiss 3T3 cells expressing FP receptors) (Mus musculus, UniProt P43117)

>  <Emax [%]>
104

$$$$
>  <smiles code>
O=C(O)CCC/C=C\C[C@H]1CC[C@@H](O)[C@@H]1CC[C@@H](O)C1Cc2ccccc2C1

>  <assayed target>
FP receptors (Swiss 3T3 cells expressing FP receptors) (Mus musculus, UniProt P43117)

>  <Emax [%]>
60

$$$$
>  <smiles code>
O=C(O)CCC/C=C\C[C@@H]1[C@@H](OC[C@@H](O)COc2ccccc2)[C@H](O)C[C@@H]1O

>  <assayed target>
FP receptors (Swiss 3T3 cells expressing FP receptors) (Mus musculus, UniProt P43117)

>  <Emax [%]>
57

$$$$
>  <smiles code>
O=C(O)CC/C=C\CC[C@@H]1[C@@H](CC[C@@H](F)COc2ccccc2)[C@H](O)C[C@@H]1O

>  <assayed target>
FP receptors (Swiss 3T3 cells expressing FP receptors) (Mus musculus, UniProt P43117)

>  <Emax [%]>
67

$$$$
>  <smiles code>
O=C(O)CC/C=C\CC[C@H]1[C@@H](O)CO[C@@H]1/C=C/[C@@H](O)COc1cccc(C(F)(F)F)c1

>  <assayed target>
FP receptors (Swiss 3T3 cells expressing FP receptors) (Mus musculus, UniProt P43117)

>  <Emax [%]>
92

$$$$
>  <smiles code>
O=C(O)CCC/C=C\C[C@H]1[C@@H](O)CO[C@@H]1/C=C/[C@@H](O)COc1cccc(C(F)(F)F)c1

>  <assayed target>
FP receptors (Swiss 3T3 cells expressing FP receptors) (Mus musculus, UniProt P43117)

>  <Emax [%]>
74

$$$$

Here are 7 compounds. What values of Emax were reported for them?
1. O=C(O)CCC/C=C\C[C@@H]1[C@@H](/C=C/[C@@H](F)COc2cccc(Cl)c2)[C@H](O)C[C@@H]1O
2. O=C(O)CC/C=C\CC[C@H]1[C@@H](O)CO[C@@H]1/C=C/[C@@H](O)COc1ccccc1
3. O=C(O)CCCCCC[C@H]1C(=O)CO[C@@H]1/C=C/[C@@H](O)COc1ccccc1
4. O=C(O)CCC/C=C\C[C@H]1[C@@H](O)CO[C@@H]1/C=C/[C@H](O)COc1ccccc1
5. O=C(O)CC/C=C\CC[C@H]1[C@@H](O)CO[C@@H]1/C=C/[C@H](O)COc1cccc(Cl)c1
6. O=C(O)CCC/C=C\C[C@@H]1[C@@H](CC[C@@H](F)COc2ccccc2)[C@H](O)C[C@@H]1O
7. O=C(O)CCC/C=C\C[C@H]1[C@@H](O)CO[C@@H]1/C=C/[C@@H](O)COc1ccccc1

Result block:
[84, 83, 67, 100, 71, 79, 67]

Could you report Emax for every entry in the following list?
1. O=C(O)CCC/C=C\C[C@@H]1[C@@H](OC[C@H](O)COc2ccccc2)[C@H](O)C[C@@H]1O
2. O=C(O)CCC/C=C\C[C@@H]1[C@@H](/C=C/[C@H](F)COc2cccc(C(F)(F)F)c2)[C@H](O)C[C@@H]1O

Result block:
[57, 44.5]
